# System: MYB mRNA
# Assay comment: RT-qPCR splicing assay, MYB canonical junction (CJ) and alternative junction (AJ) mRNA
# Type: cell-based, human
# Reported conditions: Homo sapiens; decrease in MYB canonical junction (CJ) mRNA, RT-qPCR; read-out: MYB CJ IC50
Quick reference for IC50 among some compounds

Below, 7 compounds whose answers are already recorded.
Compound: Cc1cn2cc(-c3cc(F)c4c(=O)n(C5CCNC6(CC6)C5)ccc4c3)cc(F)c2n1 (centres unmarked)
IC50: > 10000 nM
--
Compound: Cc1cn2cc(-c3cc(F)c4c(=O)n(N5CCNCC5)cnc4c3)cc(F)c2n1
IC50: < 100 nM
--
Compound: Cn1cc2cc(-n3cnc4ccc(C5=CCNCC5)cc4c3=O)ccc2n1
IC50: > 10000 nM
--
Compound: Cn1cc2ccc(-n3cnc4ccc(NC5CCNCC5)cc4c3=O)cc2n1
IC50: > 10000 nM
--
Compound: Cc1cn2cc(-c3ccc4c(=O)n(C5CCN[C@@H](C)C5)cnc4c3)cc(F)c2n1 (some centres unmarked)
IC50: 100 to 1000 nM
--
Compound: Cn1cc2c(n1)CCN(c1cc(F)c3c(=O)n(C4CCNCC4)cnc3c1)C2
IC50: 1000 to 10000 nM
--
Compound: Cc1cn2cc(-c3ncc4c(=O)n([C@@H]5CCNC(C)(C)C5)ccc4n3)cc(F)c2n1
IC50: 100 to 1000 nM

Proceed to the following item.
### Prompt Using the record for CNC12CCC(n3ccc4nc(-c5cc6cn(C)nc6c(C)c5O)ccc4c3=O)(CC1)C2 , report its IC50.
### Response < 100 nM

----------
# Test system: MYB mRNA
# Assay comment: RT-qPCR splicing assay, MYB canonical junction (CJ) and alternative junction (AJ) mRNA
# Assay type: cell-based, human
# Reported conditions: Homo sapiens; increase in MYB alternative junction (AJ) mRNA, RT-qPCR; read-out: MYB AJ AC50
Catalogue of compounds with associated AC50

Compound: CNC(=O)c1cc(-c2ccc3c(=O)n(C4CCNCC4)ccc3c2)nn2cc(C)nc12 [Compound 518]
AC50: 1000 to 10000 nM
//
Compound: Cn1cc2cc(-c3ncc4c(=O)n(C5CCNCC5)ccc4n3)c(O)cc2n1 [Compound 1211]
AC50: 100 to 1000 nM
//
Compound: Cn1cc2cc(-n3cnc4cc(C5=CC6CCC(C5)N6)ccc4c3=O)ccc2n1 (stereo not shown) [Compound 160]
AC50: > 10000 nM

Continue with the compound presented below.
### Prompt # query: AC50 of entry Cc1cn2cc(-c3cc(O)c4c(=O)n(C5CCNC5)ccc4c3)cc(C#N)c2n1 (stereo not shown) [Compound 433]
### Response 100 to 1000 nM

----------
Each item that follows carries a reported IC50.
# Test system: MYB mRNA
# Assay comment: RT-qPCR splicing assay, MYB canonical junction (CJ) and alternative junction (AJ) mRNA
# Type: cell-based, human
# Reported conditions: Homo sapiens; decrease in MYB canonical junction (CJ) mRNA, RT-qPCR; read-out: MYB CJ IC50

Some solved entries appear below for comparison.
Compound: Cc1cc(-c2cc(F)c3c(=O)n(C4CCNC5(CC5)C4)ccc3c2)cc2cn(C)nc12 (stereo not shown)
Readout type: IC50
Val: < 100 nM
//
Compound: Cc1cn2cc(-c3cc4ccn(C5CCNCC5)c(=O)c4cn3)nc(C)c2n1
Readout type: IC50
Val: 100 to 1000 nM
//
Compound: Cc1cn2cc(-c3cc4ncn(C5CCNCC5)c(=O)c4cc3F)cc(F)c2n1
Readout type: IC50
Val: 100 to 1000 nM

Let us move to another entry and its IC50.
### Prompt // returns reported IC50 for input Cc1cn2cc(-c3cc(F)c4c(=O)n(C5CCNCC5)cnc4c3)cc(F)c2n1
### Response < 100 nM
